TEST_TARGET: mTOR (Homo sapiens)
Construct: FLAG; made in house
Sequence (P42345 1362-2549): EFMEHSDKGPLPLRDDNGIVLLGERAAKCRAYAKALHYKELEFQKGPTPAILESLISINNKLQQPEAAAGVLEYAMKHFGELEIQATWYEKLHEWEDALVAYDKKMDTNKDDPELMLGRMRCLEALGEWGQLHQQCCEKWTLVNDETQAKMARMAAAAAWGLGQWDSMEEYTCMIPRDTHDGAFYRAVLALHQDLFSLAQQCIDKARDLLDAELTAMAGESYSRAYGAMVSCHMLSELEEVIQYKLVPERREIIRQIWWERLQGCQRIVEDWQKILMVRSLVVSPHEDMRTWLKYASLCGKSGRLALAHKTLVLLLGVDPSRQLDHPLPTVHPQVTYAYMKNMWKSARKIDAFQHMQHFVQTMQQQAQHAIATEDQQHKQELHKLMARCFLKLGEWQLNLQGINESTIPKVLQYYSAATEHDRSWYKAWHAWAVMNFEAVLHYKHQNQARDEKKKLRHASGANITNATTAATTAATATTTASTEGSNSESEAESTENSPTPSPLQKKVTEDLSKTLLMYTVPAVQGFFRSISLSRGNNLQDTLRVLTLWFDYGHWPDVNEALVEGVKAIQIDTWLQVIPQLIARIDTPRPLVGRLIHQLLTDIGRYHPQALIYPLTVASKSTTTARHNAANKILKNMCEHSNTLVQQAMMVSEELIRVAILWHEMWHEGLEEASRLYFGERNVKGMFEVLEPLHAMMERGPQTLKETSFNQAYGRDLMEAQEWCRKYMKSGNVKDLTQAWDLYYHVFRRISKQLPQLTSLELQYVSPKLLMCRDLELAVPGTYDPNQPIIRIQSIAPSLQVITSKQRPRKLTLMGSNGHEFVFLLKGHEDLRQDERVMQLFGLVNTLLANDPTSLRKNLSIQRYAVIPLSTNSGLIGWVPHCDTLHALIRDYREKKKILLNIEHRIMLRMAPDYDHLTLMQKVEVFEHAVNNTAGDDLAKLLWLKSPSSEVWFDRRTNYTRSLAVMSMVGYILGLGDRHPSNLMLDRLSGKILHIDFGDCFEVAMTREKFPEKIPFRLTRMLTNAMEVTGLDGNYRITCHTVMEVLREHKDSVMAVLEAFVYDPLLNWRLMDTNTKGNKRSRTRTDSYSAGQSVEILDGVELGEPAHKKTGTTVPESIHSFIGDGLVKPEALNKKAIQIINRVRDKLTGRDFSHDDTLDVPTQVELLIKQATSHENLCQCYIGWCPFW
ASSAY: In Vitro mTOR Kinase Assay (Echo), Test (a)(ii)
Type: biochemical
EXPERIMENTAL_CONDITIONS: table of enzyme assay Test (a)(ii); read-out: Test (a)(ii) IC50
OBSERVATION_TYPE: IC50 (nM)
Give the value, in units of nM, as a plain number.

Q: Fill in the blank: the reported IC50 of C[C@H]1COCCN1c1cc(C2(S(=O)(=O)c3ccc(Cl)cc3)CCOCC2)nc(-c2ccc(NC(=O)NCCO)cc2)n1 [Example 23l] is ____.
A: 8.88
